- Conditions used: human gut metagenome, 24 h, 2 µM; note: call rule not given here
Assay readout: Bacterial Biotransformation

>  <Compound>
CCCN(CCC)CCc1cccc2c1CC(=O)N2 [ROPINIROLE]

>  <Recorded measurement>
Compound metabolized

$$$$
>  <Compound>
CCN(C)C(=O)Oc1cccc([C@H](C)N(C)C)c1.O=C(O)C(O)C(O)C(=O)O [RIVASTIGMINE TARTRATE]

>  <Recorded measurement>
Compound NOT metabolized

$$$$
>  <Compound>
COC1=C(OC)C(=O)C(CCCCCCCCCCO)=C(C)C1=O [IDEBENONE]

>  <Recorded measurement>
Compound metabolized

$$$$
>  <Compound>
CC(C)c1c(CN(C)C(C)Cc2ccccc2)n(C)n(-c2ccccc2)c1=O (centres undefined) [FAMPROFAZONE]

>  <Recorded measurement>
Compound metabolized

$$$$
>  <Compound>
O=C(NC(Cc1cc(=O)[nH]c2ccccc12)C(=O)O)c1ccc(Cl)cc1 (centres undefined) [REBAMIPIDE]

>  <Recorded measurement>
Compound NOT metabolized

$$$$
>  <Compound>
CC(NC(C)(C)C)C(=O)c1cccc(Cl)c1 (centres undefined) [BUPROPION]

>  <Recorded measurement>
Compound NOT metabolized

$$$$
>  <Compound>
CN1[C@@H]2CC[C@H]1C[C@@H](OC(=O)[C@H](CO)c1ccccc1)C2 [HYOSCYAMINE]

>  <Recorded measurement>
Compound metabolized

$$$$
>  <Compound>
CN1CCN2c3ccccc3Cc3ccccc3C2C1 (centres undefined) [MIANSERIN]

>  <Recorded measurement>
Compound NOT metabolized

$$$$
>  <Compound>
O=C1CN2Cc3c(ccc(Cl)c3Cl)N=C2N1 [ANAGRELIDE]

>  <Recorded measurement>
Compound metabolized

$$$$

###

- Procedure text: The drug is tested on WLS-073 corresponding to human gut metagenome with ENA study accession number: PRJEB37062 and ENA sample accession number: ERS12561749 for biotransformation under anaerobic condition. The drug concentrations were measured over 9 timepoints collected between 0 and 24 hours of incubation by liquid-chromatography-coupled mass spectrometry (LC–MS)
- Conditions used: 2 µM
Assay readout: Bacterial Biotransformation

>  <Molecule>
COc1ccc(CN2CCNCC2)c(OC)c1OC.Cl.Cl [TRIMETAZIDINE DIHYDROCHLORIDE]

>  <Recorded measurement>
Compound NOT metabolized

$$$$
>  <Molecule>
CN1[C@@H]2CC[C@H]1C[C@@H](OC(=O)c1c[nH]c3ccccc13)C2

>  <Recorded measurement>
Compound NOT metabolized

$$$$
>  <Molecule>
C[N+]12CCC(CC1)C(OC(=O)C(O)(c1ccccc1)c1ccccc1)C2.[Br-] (configuration not stated) [CLIDINIUM BROMIDE]

>  <Recorded measurement>
Compound NOT metabolized

$$$$
>  <Molecule>
COc1cc(NC(C)CCCN)c2ncccc2c1.O=P(O)(O)O.O=P(O)(O)O (configuration not stated) [PRIMAQUINE PHOSPHATE]

>  <Recorded measurement>
Compound NOT metabolized

$$$$
>  <Molecule>
CCOC(=O)[C@H](CCc1ccccc1)N[C@@H](C)C(=O)N1CCC[C@H]1C(=O)O.O=C(O)/C=C\C(=O)O [ENALAPRIL MALEATE]

>  <Recorded measurement>
Compound NOT metabolized

$$$$
>  <Molecule>
Cc1cc(C)cc(OCC2CNC(=O)O2)c1 (configuration not stated)

>  <Recorded measurement>
Compound NOT metabolized

$$$$
>  <Molecule>
CC#CCn1c(N2CCC[C@@H](N)C2)nc2c1c(=O)n(Cc1nc(C)c3ccccc3n1)c(=O)n2C

>  <Recorded measurement>
Compound metabolized

$$$$
>  <Molecule>
O=C(O)CCC(=O)O.O=C(O[C@H]1CN2CCC1CC2)N1CCc2ccccc2[C@@H]1c1ccccc1 [SOLIFENACIN SUCCINATE]

>  <Recorded measurement>
Compound metabolized

$$$$
>  <Molecule>
COc1ccc2cc([C@H](C)C(=O)O)ccc2c1

>  <Recorded measurement>
Compound NOT metabolized

$$$$
>  <Molecule>
O=P1(N(CCCl)CCCl)NCCCO1 (configuration not stated) [CYCLOPHOSPHAMIDE ANHYDROUS]

>  <Recorded measurement>
Compound NOT metabolized

$$$$
>  <Molecule>
CC(=O)Nc1ccc(OC(C)=O)cc1 [DIACETAMATE]

>  <Recorded measurement>
Compound metabolized

$$$$
>  <Molecule>
N=C(N)NC(=O)Cc1c(Cl)cccc1Cl

>  <Recorded measurement>
Compound NOT metabolized

$$$$
>  <Molecule>
O=C1CN2Cc3c(ccc(Cl)c3Cl)N=C2N1 [ANAGRELIDE]

>  <Recorded measurement>
Compound NOT metabolized

$$$$
>  <Molecule>
CC(C)(C)N.CCC[C@H](N[C@@H](C)C(=O)N1[C@H](C(=O)O)C[C@@H]2CCCC[C@@H]21)C(=O)OCC

>  <Recorded measurement>
Compound NOT metabolized

$$$$
>  <Molecule>
CC(=O)CCCCn1c(=O)c2c(ncn2C)n(C)c1=O

>  <Recorded measurement>
Compound NOT metabolized

$$$$
>  <Molecule>
Br.CN1CCC[C@@H]1Cc1c[nH]c2ccc(CCS(=O)(=O)c3ccccc3)cc12 [ELETRIPTAN HYDROBROMIDE]

>  <Recorded measurement>
Compound metabolized

$$$$
>  <Molecule>
COc1ccc2c(c1)c(CC(=O)O)c(C)n2C(=O)c1ccc(Cl)cc1

>  <Recorded measurement>
Compound metabolized

$$$$
